Recorded measurements of IC50, one per entry
Tested on: E. coli S30 bacterial extract (pBest Luc luciferase transcription/translation)
Experiment: Coupled bacterial transcription/translation assay (T/T)
Type: biochemical
Settings: luciferase reporter, 35 minutes at 37° C., read-out: Trans/Trans IC50
Respond numerically; units are µM and should not be typed.

CNC[C@H]1O[C@H](O[C@H]2[C@H](O[C@@H]3O[C@H](CO)[C@@H](O[C@H]4O[C@@H](CN)[C@@H](O)[C@H](O)[C@H]4N)[C@H]3O)[C@@H](O)[C@H](N)C[C@@H]2N)[C@H](N)[C@@H](O)[C@@H]1O: 0.159

Shifting focus to the molecule that follows.
In: Query (molecule): `NCCCNC[C@H]1O[C@H](O[C@H]2[C@H](O[C@@H]3O[C@H](CO)[C@@H](O[C@H]4O[C@@H](CN)[C@@H](O)[C@H](O)[C@H]4N)[C@H]3O)[C@@H](O)[C@H](N)C[C@@H]2N)[C@H](N)[C@@H](O)[C@@H]1O` ; field requested: IC50
Out: 0.175
